Parameter growth: see the listing below.
Tested on: NCI-H322M lung
Test: NCI-60 one-dose screen, 48 h (100 = growth as untreated, 0 = no growth, -100 = all killed)
Settings: 10 µM unless noted
About 83,000 compounds went through this panel and 20% of them were active in at least one assay; those are over-represented in the sample as a whole. Activity calls are given as the source filed them. Rule for the calls: active = growth percent below 10; inactive = the rest.

COC(=O)c1cc2oc(/C=N\NC(=O)c3cc4oc(C)c(C)c4[nH]3)cc2[nH]1; 106% (inactive)
NS(=O)(=O)c1ccc(-n2nc(-c3ccc(Br)cc3)ccc2=O)cc1; 87.7% [100 µM] (inactive)
O=C(Nc1nc2ccc(OC(F)(F)F)cc2s1)c1ccc(F)cc1; 30% (inactive)
O=C(CSc1nnc(-c2cc(-c3ccccc3)nc3ccccc23)o1)c1ccc(Br)cc1; 103% (inactive)
Cc1ccc(C2=NNC(c3sc(Cl)nc3Cl)C2)cc1 (stereo not given); 83.2% (inactive)

Consider the compound Cc1cc(-c2ccccc2)cc(C)n1 and give its measured growth.
105% (inactive)

Consider the compound CC(=O)Nc1ccc(C(=O)COc2cccc(/C=C3\CCc4ccccc4C3=O)c2)cc1 and give its measured growth.
105% (inactive)

Consider the compound O=c1[nH]c(N2CCC(Cc3ccccc3)CC2)nc2sc3c(c12)CCCC3 and give its measured growth.
97.1% (inactive)

Consider the compound Cc1cc(C)nc(NS(=O)(=O)c2ccc(Nc3nc4nc(SCc5ccccc5)nc(-c5ccc(O)cc5)c4c(=O)[nH]3)cc2)n1 and give its measured growth.
111% (inactive)

Consider the compound COc1ccc(-c2nc3sc4c(c3c(=O)[nH]2)CCCCCC4)cc1 and give its measured growth.
74.4% (inactive)

Consider the compound C[C@H](C(=O)N[C@@H](Cc1ccc(-c2ccccc2)cc1)C(=O)NC1CC(C)(C)N(C)C(C)(C)C1)c1ccc(-c2ccccc2)c(F)c1 and give its measured growth.
-62.3% (active)

Consider the compound CC(=O)O[C@H]1CC[C@@]2(C)C(=CC[C@@H]3[C@@H]2CC[C@]2(C)C(c4cccnc4)=CC[C@@H]32)C1 and give its measured growth.
95.6% (inactive)

Consider the compound CC(NC(=O)Oc1cccc2ccccc12)c1ccccc1 (stereo not given) and give its measured growth.
107% (inactive)

Consider the compound O=CNc1ccc2c(c1)Cc1cc([N+](=O)[O-])ccc1-2 and give its measured growth.
9.9% (active)

Consider the compound CCOC(=O)c1cnc2c(C)cc(C)cc2c1NCCCN(C)C and give its measured growth.
20.9% (inactive)

Consider the compound CCCCCN1C(=O)CCC1=O and give its measured growth.
110% (inactive)

Consider the compound C/C(=C\CCc1ccoc1)CC/C=C(\C)CCCN1CCSCC1 and give its measured growth.
7.95% (active)

Consider the compound O=C(CN1CCN(c2ccc(Cl)cc2)CC1)N1CCN(c2nnc(-c3ccc(Cl)cc3)c(-c3ccc(Cl)cc3)n2)CC1 and give its measured growth.
77.9% (inactive)

Consider the compound COc1cccc(-c2nc(-c3ccc(N)cc3)co2)c1 and give its measured growth.
102% (inactive)

Consider the compound O=C(Oc1ccccc1)C(Br)C(Br)c1ccccc1 (stereo not given) and give its measured growth.
179% (inactive)

Consider the compound C(#Cc1ccccc1C#Cc1ccccn1)c1ccc(OCCCCCCOc2ccc(C#Cc3ccccc3C#Cc3ccccn3)cc2)cc1 and give its measured growth.
67.8% (inactive)

Consider the compound N#Cc1ccccc1C#Cc1ccccc1C#Cc1ccc(OCCCCCCOc2ccc(C#Cc3ccccc3C#Cc3ccccc3C#N)cc2)cc1 and give its measured growth.
105% (inactive)

Consider the compound COc1ccc(/C=C/C(=O)c2cccc(NS(C)(=O)=O)c2)cc1 and give its measured growth.
92.2% (inactive)

Consider the compound Nc1nc(Nc2ccccc2SSc2ccccc2Nc2nc(N)nc(-c3ccc(I)cc3)n2)nc(-c2ccc(I)cc2)n1 and give its measured growth.
81.1% (inactive)

Consider the compound NS(=O)(=O)c1ccc(N2CC(c3nc4ccccc4[nH]3)CC2=O)cc1 (stereo not given) and give its measured growth.
88.9% (inactive)
